src = ChEMBL document CHEMBL6114965

target: Cytochrome P450 3A4 (Homo sapiens); assay: Inhibition of CYP3A4 (unknown origin) using testosterone as substrate […]; assay type: ADME
Sequence (P08684 whole entry): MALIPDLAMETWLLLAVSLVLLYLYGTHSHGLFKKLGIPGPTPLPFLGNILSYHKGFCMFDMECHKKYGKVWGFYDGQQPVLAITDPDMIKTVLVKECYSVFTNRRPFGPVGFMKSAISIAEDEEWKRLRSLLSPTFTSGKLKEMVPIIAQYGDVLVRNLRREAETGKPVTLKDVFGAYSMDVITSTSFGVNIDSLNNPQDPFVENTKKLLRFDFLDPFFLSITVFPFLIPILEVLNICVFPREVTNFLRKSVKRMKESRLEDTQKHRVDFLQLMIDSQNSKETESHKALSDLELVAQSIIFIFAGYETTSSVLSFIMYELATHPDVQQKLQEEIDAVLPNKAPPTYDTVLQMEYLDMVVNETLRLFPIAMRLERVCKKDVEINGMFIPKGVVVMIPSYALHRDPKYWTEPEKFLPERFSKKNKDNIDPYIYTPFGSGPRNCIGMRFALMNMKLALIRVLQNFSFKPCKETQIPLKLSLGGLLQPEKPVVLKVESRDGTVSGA
Assay Metric: IC50 (µM)

* O=C1CCC(N2C(=O)c3cccc(NCCCCCn4cc(CN5CCN(CCCn6cc(C7=C(c8c[nH]c9ccccc89)C(=O)NC7=O)c7ccccc76)CC5)nn4)c3C2=O)C(=O)N1 (stereo unspecified) | 25.3

====

target: Protein cereblon/Glycogen synthase kinase-3 beta (Homo sapiens, UniProt P49841+Q96SW2); experiment: PROTAC activity at CRBN/GSK3beta in human PANC-1 cells assessed as induction of GSK3beta degradation at 0.5 to 2.8 uM incubated for 10 hrs in presence of MG132 by Western blot analysis; type: cell-based; details: dose 0.5-2.8 µM
Sequence (P49841 whole entry, looked up): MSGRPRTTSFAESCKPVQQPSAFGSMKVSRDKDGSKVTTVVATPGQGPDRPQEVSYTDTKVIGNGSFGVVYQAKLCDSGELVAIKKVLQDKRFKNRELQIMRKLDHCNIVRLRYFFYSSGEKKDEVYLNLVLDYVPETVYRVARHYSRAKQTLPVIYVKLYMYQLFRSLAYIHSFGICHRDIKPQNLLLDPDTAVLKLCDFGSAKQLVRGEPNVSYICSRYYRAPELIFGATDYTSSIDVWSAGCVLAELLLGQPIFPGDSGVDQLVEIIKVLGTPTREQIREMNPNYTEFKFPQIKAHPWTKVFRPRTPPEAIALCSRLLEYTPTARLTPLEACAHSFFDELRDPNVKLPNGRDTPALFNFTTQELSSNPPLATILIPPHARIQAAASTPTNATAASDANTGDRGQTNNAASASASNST
Sequence (Q96SW2 whole entry, looked up): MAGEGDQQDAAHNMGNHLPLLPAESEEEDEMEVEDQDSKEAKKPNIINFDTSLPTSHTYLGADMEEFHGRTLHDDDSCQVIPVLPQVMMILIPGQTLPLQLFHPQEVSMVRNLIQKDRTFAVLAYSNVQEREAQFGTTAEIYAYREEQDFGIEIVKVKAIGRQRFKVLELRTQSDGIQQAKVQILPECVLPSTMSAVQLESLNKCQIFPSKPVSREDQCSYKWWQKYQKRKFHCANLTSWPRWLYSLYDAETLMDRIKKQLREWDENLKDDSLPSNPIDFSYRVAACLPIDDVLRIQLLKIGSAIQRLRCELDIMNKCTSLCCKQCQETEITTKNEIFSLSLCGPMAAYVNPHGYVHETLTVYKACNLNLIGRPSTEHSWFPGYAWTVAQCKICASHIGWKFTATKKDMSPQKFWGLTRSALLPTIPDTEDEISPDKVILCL
The source made the active and inactive calls. The calls are words filed in the database; no cut-off is given here.
Assay Metric: Activity

* O=C1CCC(N2C(=O)c3cccc(NCCCCCn4cc(CN5CCN(CCCn6cc(C7=C(c8c[nH]c9ccccc89)C(=O)NC7=O)c7ccccc76)CC5)nn4)c3C2=O)C(=O)N1 (stereo not drawn) | inactive
* O=C1CCC(N2C(=O)c3cccc(NCC(=O)N4CCC(C(=O)N5CCN(CCCn6cc(C7=C(c8c[nH]c9ccccc89)C(=O)NC7=O)c7ccccc76)CC5)CC4)c3C2=O)C(=O)N1 (stereo not drawn) | inactive
* O=C1CCC(N2C(=O)c3cccc(NCCOCCOCCOCCOCCOCn4cc(CN5CCN(CCCn6cc(C7=C(c8c[nH]c9ccccc89)C(=O)NC7=O)c7ccccc76)CC5)nn4)c3C2=O)C(=O)N1 (stereo not drawn) | inactive

====

experiment: Cytotoxicity against human A549 cells; type: toxicity, cell-based
Reported CC50 by item:
Assay Metric: CC50 (µM)

- O=C1CCC(N2C(=O)c3cccc(NCCCCCn4cc(CN5CCN(CCCn6cc(C7=C(c8c[nH]c9ccccc89)C(=O)NC7=O)c7ccccc76)CC5)nn4)c3C2=O)C(=O)N1 (configuration not stated): 8.23
- CC(=O)c1c(C)c2cnc(Nc3ccc(N4CCNCC4)cn3)nc2n(C2CCCC2)c1=O: 7.95

====

assay: Half-life in mouse at 5 mg/kg, po; format: ADME, organism-based; details: in vivo
Assay Metric: half-life (h)

* O=C1CCC(N2C(=O)c3cccc(NCCCCCn4cc(CN5CCN(CCCn6cc(C7=C(c8c[nH]c9ccccc89)C(=O)NC7=O)c7ccccc76)CC5)nn4)c3C2=O)C(=O)N1 (stereo unspecified) | 4
